# METHOD_NOTES: stability of the powder on heating
# Type: physicochemical
# CONDITION_CONTEXT: 150° F., heated alone or mixed with each other
PROPERTY: stability of the powder when heated

1. O=C(CO)[C@@H](O)[C@H](O)[C@H](O)CO [fructose, reference compound] : remain powders
2. OC[C@H]1O[C@@H](O[C@H]2[C@H](O)[C@@H](O)C(O)O[C@@H]2CO)[C@H](O)[C@@H](O)[C@H]1O (stereo partly shown) [lactose, reference compound] : remain powders
3. OC[C@H]1O[C@@](CO)(O[C@H]2O[C@H](CO)[C@@H](O)[C@H](O)[C@H]2O)[C@@H](O)[C@@H]1O [sucrose, reference compound] : remain powders

The reported measurements were obtained from patent US20060029644A1.
